tested on: crabgrass; experiment: Test B pre/postemergence crabgrass; format: in vivo, Digitaria sanguinalis; settings: Rate 500 g/ha, Postemergence; scale 0 to 10
measurement_label: Crabgrass plant response rating
Lab note: jot down the number only; don't add units.

Here is how some compounds turned out for Crabgrass plant response rating.
C=CCn1c(=O)on(C(=O)N(c2ccc(F)cc2)C(C)C)c1=O | 9
Cc1ccc(N(C(=O)n2oc(=O)n(C(C)C)c2=O)C(C)C)cc1 | 9
CCN(Cc1ccncc1)C(=O)n1oc(=O)n(C(C)C)c1=O | 0

Request the reported Crabgrass plant response rating associated with CN(C(=O)n1oc(=O)n(Cc2ccccc2)c1=O)c1ccccc1
0

And for CC(C)N(C(=O)n1oc(=O)n(N(C)c2ccccc2)c1=O)c1ccc(F)cc1 ?
3

---

test system: morningglory; experiment: Test B pre/postemergence morningglory; type: in vivo, Ipomoea hederacea; conditions: Preemergence, Rate 500 g/ha; scale of 0 to 10 where 0 is no effect and 10 is complete control
measurement_label: Plant response rating, Morningglory
Output: the number by itself.

Previously resolved entries follow.
CC(C)N(C(=O)n1oc(=O)n(CCCC#N)c1=O)c1ccc(F)cc1F [Compound 675] | 6
CC(C)N(C(=O)n1oc(=O)n(CC(C)(C)C)c1=O)c1ccccc1 [Compound 276] | 0
CCOC(=O)CC(C(=O)OCC)n1c(=O)on(C(=O)N(c2ccc(F)cc2)C(C)C)c1=O (stereo not drawn) [Compound 615] | 0
CCN(C(=O)n1oc(=O)n(N(C)C)c1=O)C1CCCCC1 [Compound 274] | 0
CCOC(=O)CC(C(=O)OCC)n1c(=O)on(C(=O)N(c2ccc(Cl)cc2)C(C)C)c1=O (stereo not drawn) [Compound 681] | 0

Then there is this molecule:
// lookup Plant response rating, Morningglory for CC(=O)OCn1c(=O)on(C(=O)N(c2ccc(F)cc2)C(C)C)c1=O [Compound 292]
0

---

Reported Plant response rating, Soybean values for a set of molecules
system: soybean; assay: Test B pre/postemergence soybean; type: in vivo, Glycine max; settings: Postemergence, Rate 62 g/ha; scale 0 to 10, 0 is no effect, 10 is complete control
Just the number.

Solved entries (count: 5):
CCOC(Cn1c(=O)on(C(=O)N(c2ccc(Cl)cc2)C(C)C)c1=O)OCC [Compound 633] | 2
CC(C)N(C(=O)n1oc(=O)n(CCN(C)C(=O)c2ccccc2)c1=O)c1ccccc1 [Compound 761] | 2
CC(C)N(C(=O)n1oc(=O)n(C(C)C2=NOCC2)c1=O)c1ccc(Cl)cc1 (racemic) [Compound 759] | 3
CC(C)N(C(=O)n1oc(=O)n(CCCCl)c1=O)c1ccccc1 [Compound 750] | 2
CC(C)N(C(=O)n1oc(=O)n(CF)c1=O)c1ccc(F)cc1 [Compound 709] | 1

GET /values?readout=Plant response rating, Soybean&system=soybean&item= CCOC(=O)CC(C(=O)OCC)n1c(=O)on(C(=O)N(c2ccc(F)cc2)C(C)C)c1=O (stereo not shown) [Compound 615]
1

Entry CC(C)N(C(=O)n1oc(=O)n(CC2=NOCCO2)c1=O)c1ccc(F)cc1 [Compound 765] please
2

// repeat for CC(C)N(C(=O)n1oc(=O)n(CCCCCl)c1=O)c1ccc(F)cc1 [Compound 712] and report
2

Here is the next molecule: CC(C)N(C(=O)n1oc(=O)n(Cc2nnc(Cl)s2)c1=O)c1ccc(F)cc1F [Compound 645]
1

Also, COc1ccc(N(C(=O)n2oc(=O)n(C(C)C)c2=O)C(C)C)cc1 [Compound 780] please.
3

---

// values below are reported Cocklebur plant response rating
system: cocklebur; experiment: Test B pre/postemergence cocklebur; type: in vivo, Xanthium strumarium; details: Postemergence, Rate 125 g/ha; scale 0 to 10, 0 is no effect, 10 is complete control

See these solved cases before continuing.
CCCCn1c(=O)on(C(=O)N(c2ccc(Cl)cc2)C(C)C)c1=O | 0
Cc1noc(C)c1Cn1c(=O)on(C(=O)N(c2ccc(F)cc2F)C(C)C)c1=O | 3
CC(C)N(C(=O)n1oc(=O)n(CC2=CCCN(C)C2)c1=O)c1ccccc1 | 0

Proceed to the following item.
Dear colleague, I am looking for the recorded Cocklebur plant response rating of the following compound: CCOCn1c(=O)on(C(=O)N(c2ccc(Cl)cc2)C(C)C)c1=O
0

---

Quick list: Rape plant response rating per entry.
Test system: rape
Assay: Test B pre/postemergence rape
Type: in vivo, Brassica napus
Conditions: Preemergence, Rate 500 g/ha; scale of 0 to 10 where 0 is no effect and 10 is complete control
Method: […] At the same time, these crop and weed species were also treated with postemergence applications of test chemicals formulated in the same manner. […] Treated plants and controls were maintained in a greenhouse for twelve to sixteen days, after which all species were compared to controls and visually evaluated. […]
No unit in the answer, please; the number alone is enough.

Examples with their reported Rape plant response rating follow.
CCCCn1c(=O)on(C(=O)N(c2ccccc2)C(C)C)c1=O [Compound 556] | 8
CCc1cccc(CC)c1-n1c(=O)on(C(=O)N(c2ccccc2)C(C)C)c1=O [Compound 305] | 0
CC(C)N(C(=O)n1oc(=O)n(CC2=CCCCC2)c1=O)c1ccccc1 [Compound 496] | 0
CCCCCCn1c(=O)on(C(=O)N(c2ccccc2)C(C)C)c1=O [Compound 558] | 2

// moving on: another record for Rape plant response rating
Data request, read-out Rape plant response rating, for CC(C)N(C(=O)n1oc(=O)n(C2CC2)c1=O)c1ccc(F)cc1F [Compound 299]
10

---

test system: sugar beet; experiment: Test B pre/postemergence sugar beet; format: in vivo, Beta vulgaris; details: Preemergence, Rate 62 g/ha; scale of 0 to 10 where 0 is no effect and 10 is complete control
The compounds listed here are annotated with their Sugarbeets plant response rating.
Please reply with the number alone, leaving off any unit.

CCC=CCn1c(=O)on(C(=O)N(c2ccc(F)cc2)C(C)C)c1=O [Compound 286] | 0
CC(C)N(C(=O)n1oc(=O)n(C(C)C2CC2)c1=O)c1ccc(Cl)cc1 (stereo not drawn) [Compound 700] | 0
CC(C)N(C(=O)n1oc(=O)n(Cc2nnc(Cl)s2)c1=O)c1ccc(Cl)cc1 [Compound 653] | 0

Look at this compound and give its reported Sugarbeets plant response rating. CCN(C(=O)n1oc(=O)n(C)c1=O)C1CCCCC1 [Compound 228]
0

Another compound: CC(Cl)=CCn1c(=O)on(C(=O)N(c2ccc(F)cc2)C(C)C)c1=O [Compound 285]
0

Moving on to Cc1noc(C)c1Cn1c(=O)on(C(=O)N(c2ccc(F)cc2)C(C)C)c1=O [Compound 259]
0

Now consider CC(C)N(C(=O)n1oc(=O)n(CF)c1=O)c1ccc(F)cc1 [Compound 709] .
0

---

Here, each record is paired with measured B. signalgrass plant response rating data.
System: surinam grass
Assay: Test B pre/postemergence surinam grass
Type: in vivo, Brachiaria decumbens
Conditions: Preemergence, Rate 62 g/ha; scale 0 to 10 (0 no effect, 10 complete control)
Method: […] At the same time, these crop and weed species were also treated with postemergence applications of test chemicals formulated in the same manner. […] Treated plants and controls were maintained in a greenhouse for twelve to sixteen days, after which all species were compared to controls and visually evaluated. […]
Number only, please.

CC(C)N(C(=O)n1oc(=O)n(COCc2ccccc2)c1=O)c1ccccc1 | 0
COCn1c(=O)on(C(=O)N(c2ccccc2)C(C)C)c1=O | 5
CCOC(Cn1c(=O)on(C(=O)N(c2ccc(Cl)cc2)C(C)C)c1=O)OCC | 0

Turning now to a further compound:
Request the reported B. signalgrass plant response rating associated with CC(C)N(C(=O)n1oc(=O)n(C(C)c2ccccc2)c1=O)c1ccc(Cl)cc1 (stereo not shown)
0

---

tested on: duck salad; assay: Test B flood test duck salad; format: in vivo, Heteranthera limosa; details: Rate 500 g/ha; Pre-emergence; flood test species; scale 0 to 10 (0 no effect, 10 complete control)
Collected Ducksalad plant response rating values appear next to each entry.
Respond using a number only.

CC(C)N(C(=O)n1oc(=O)n(C(CF)CF)c1=O)c1ccc(F)cc1 | 3
CC[Si](C)(C)Cn1c(=O)on(C(=O)N(c2ccc(F)cc2)C(C)C)c1=O | 0
CCC=CCn1c(=O)on(C(=O)N(c2ccccc2)C(C)C)c1=O | 0
CC(C)N(C(=O)n1oc(=O)n(COCC[Si](C)(C)C)c1=O)c1ccc(Cl)cc1 | 0
CCN(C(=O)n1oc(=O)n(N(C)C)c1=O)C1CCCCC1 | 0

What value of Ducksalad plant response rating on duck salad does CCN(C(=O)n1oc(=O)n(C)c1=O)C1CCCCC1 have?
0

---

system: pigweed; test: Test B pre/postemergence pigweed; assay type: in vivo, Amaranthus retroflexus; conditions: Rate 250 g/ha, Postemergence; scale of 0 to 10 where 0 is no effect and 10 is complete control
Examples of compounds with documented Plant response rating, Redroot pigweed follow.
Answer as a number with no unit attached.

CC(C)N(C(=O)n1oc(=O)n(CCC(F)(F)F)c1=O)c1ccc(Cl)cc1 [Compound 554] | 7
CCN(C(=O)n1oc(=O)n(N(C)C)c1=O)C1CCCCC1 [Compound 274] | 1

Which Plant response rating, Redroot pigweed is reported for this compound? CC(C)N(C(=O)n1oc(=O)n(COCc2ccccc2)c1=O)c1ccccc1 [Compound 579]
0

Also need CCc1cccc(CC)c1-n1c(=O)on(C(=O)N(c2ccccc2)C(C)C)c1=O [Compound 305] , thanks.
4

Consider next the compound CCOC(=O)C(C)N(C(=O)n1oc(=O)n(C(C)C)c1=O)c1ccc(F)cc1 (stereo not drawn) [Compound 302] in the same way.
2

Moving on to the next compound: COC(=O)CCCn1c(=O)on(C(=O)N(c2ccc(Cl)cc2)C(C)C)c1=O [Compound 543]
0
